Time values, listed per item
- System: Mus musculus
- protocol: Antidepressant activity in Mus musculus (mouse) assessed as immobility time at 100 mg/kg, ip administered 60 min before test measured during last 4 min of 6 min testing period
- Type: functional
- test_settings: route intraperitoneal
Kindly provide the numeric value in s only, without the unit symbol.

Briefly, Time measured for COc1ccc(/C=N/NC(=S)Nc2nc3ccc(Cl)cc3s2)cc1 : 181

Entry under test: NC(=O)N1c2ccccc2C=Cc2ccccc21 [CARBAMAZEPINE] . Its Time was 179

====

Entries and their measured MED follow.
- System: Mus musculus
- protocol: Neurotoxicity in ip dosed Mus musculus (mouse) assessed as motor impairment after 4 hr by rotorod test
- Assay type: toxicity, organism-based
- test_settings: in vivo

Reported MED for S=C(N/N=C/c1ccccc1Cl)Nc1nc2ccc(Cl)cc2s1 was 100 mg/kg

Looking up O=C(Cn1ccc2ccccc21)Nc1nc2ccc(Cl)cc2s1 , I see its MED listed as 300 mg/kg

So, COc1ccc(/C=N/NC(=S)Nc2nc3ccc(Cl)cc3s2)cc1 ? Its MED was 300 mg/kg

Input O=C(CNc1ccc(Cl)cc1)Nc1nc2ccc(Cl)cc2s1 . Output MED: 100 mg/kg

Quick note, MED for O=[N+]([O-])c1ccc(/C=N/NC(=S)Nc2nc3ccc(Cl)cc3s2)cc1 landed at 300 mg/kg

Value of MED reported for the compound NC(=O)N1c2ccccc2C=Cc2ccccc21 [CARBAMAZEPINE] is 300 mg/kg

Measured MED, Fc1ccc(/C=N/NC(=S)Nc2nc3ccc(Cl)cc3s2)cc1 : 100 mg/kg

====

- protocol: Octanol-phosphate buffer partition coefficient, log P of the compound
- Format: physicochemical
Consider the reported logP of an entry and match it to a band in bottom bin: < 4; middle bin: ≥ 4 and < 5; top bin: ≥ 5

Consider the following illustrative entries.
>  <smiles_repr>
O=C(CNc1ccc(F)cc1)Nc1nc2ccc(Cl)cc2s1

>  <label_value>
bottom bin

$$$$
>  <smiles_repr>
O=C(CN(c1ccccc1)c1ccccc1)Nc1nc2ccc(Cl)cc2s1

>  <label_value>
top bin

$$$$
>  <smiles_repr>
CN(C)c1ccc(/C=N/NC(=S)Nc2nc3ccc(Cl)cc3s2)cc1

>  <label_value>
top bin

$$$$
>  <smiles_repr>
O=[N+]([O-])c1ccc(/C=N/NC(=S)Nc2nc3ccc(Cl)cc3s2)cc1

>  <label_value>
middle bin

$$$$
>  <smiles_repr>
O=C(CN1CCOCC1)Nc1nc2ccc(Cl)cc2s1

>  <label_value>
bottom bin

$$$$
>  <smiles_repr>
CC(C)(C)NCC(=O)Nc1nc2ccc(Cl)cc2s1

>  <label_value>
bottom bin

$$$$
>  <smiles_repr>
O=C(CN1CCCCC1)Nc1nc2ccc(Cl)cc2s1

>  <label_value>
bottom bin

$$$$
>  <smiles_repr>
Oc1ccc(/C=N/NC(=S)Nc2nc3ccc(Cl)cc3s2)cc1

>  <label_value>
middle bin

$$$$

*Q* Which bin, given its logP, does COc1ccc(/C=N/NC(=S)Nc2nc3ccc(Cl)cc3s2)cc1 occupy?
*A* top bin

*Q* Which class holds O=C(Cn1ccnc1)Nc1nc2ccc(Cl)cc2s1 ?
*A* bottom bin

*Q* Field: class (logP) — entry: S=C(N/N=C/c1ccc(Cl)cc1)Nc1nc2ccc(Cl)cc2s1
*A* top bin

*Q* Bin? Fc1ccc(/C=N/NC(=S)Nc2nc3ccc(Cl)cc3s2)cc1
*A* top bin

*Q* State the class of the compound shown: S=C(N/N=C/c1ccccc1Cl)Nc1nc2ccc(Cl)cc2s1
*A* top bin

*Q* Hey, which category is O=C(Cn1ccc2ccccc21)Nc1nc2ccc(Cl)cc2s1 in, do you know?
*A* middle bin

*Q* Tag the class for O=C(CNc1ccc(Cl)cc1)Nc1nc2ccc(Cl)cc2s1
*A* middle bin

====

- Test system: Mus musculus
- protocol: Neurotoxicity in ip dosed Mus musculus (mouse) assessed as motor impairment after 4 hr by rotorod test
- Type: toxicity, organism-based
- test_settings: in vivo
observable: MED (mg/kg)
Please give a number only; it is taken to be in mg/kg.

Reference set (3 entries):
>  <smiles_repr>
S=C(N/N=C/c1ccccc1)Nc1nc2ccc(Cl)cc2s1

>  <MED / mg/kg>
300

$$$$
>  <smiles_repr>
CN(C)c1ccc(/C=N/NC(=S)Nc2nc3ccc(Cl)cc3s2)cc1

>  <MED / mg/kg>
100

$$$$
>  <smiles_repr>
Oc1ccc(/C=N/NC(=S)Nc2nc3ccc(Cl)cc3s2)cc1

>  <MED / mg/kg>
100

$$$$

So the reported MED for O=C1NC(=O)C(c2ccccc2)(c2ccccc2)N1 , on Mus musculus, turned out to be 100

Form field, MED with Mus musculus, item O=C(CN1CCCCC1)Nc1nc2ccc(Cl)cc2s1 : 300

Item CC(C)(C)NCC(=O)Nc1nc2ccc(Cl)cc2s1 ; assay system Mus musculus; MED reported as 300

====

Measured Time of individual entries
- Tested on: Mus musculus
- protocol: Antidepressant activity in Mus musculus (mouse) assessed as immobility time at 100 mg/kg, ip administered 60 min before test measured during last 4 min of 6 min testing period
- Format: functional
- test_settings: route intraperitoneal
Your answer is read as s, so omit the unit and give the number.

// solved cases for Time follow
>  <smiles_repr>
S=C(N/N=C/c1ccc(Cl)cc1)Nc1nc2ccc(Cl)cc2s1

>  <unit_abbrev>
s

>  <Time>
191

$$$$
>  <smiles_repr>
O=C(CNc1ccc(Cl)cc1)Nc1nc2ccc(Cl)cc2s1

>  <unit_abbrev>
s

>  <Time>
161

$$$$
>  <smiles_repr>
O=C(CN1CCOCC1)Nc1nc2ccc(Cl)cc2s1

>  <unit_abbrev>
s

>  <Time>
140

$$$$

Record S=C(N/N=C/c1ccccc1)Nc1nc2ccc(Cl)cc2s1 , field Time: 162
